Give measured microsomal CLint for each item. Keep answers brief.
- measurement.protocol: Microsomal stability in human liver microsomes assessed as intrinsic clearance in microsomes measured up to 60 mins in presence of NADPH by LC-MS/MS analysis
- Format: ADME, Microsome
- condition: read-out: CLH

Example compounds with recorded microsomal CLint:
O=C1CCC(c2ccc(N3CCC(CN4CCC(CC(=O)N[C@H]5CC[C@H](Nc6ncnc7[nH]cc(C(=O)c8ccc(Oc9ccccc9)cc8)c67)C5)CC4)CC3)cc2)C(=O)N1 (some centres undefined)	15.8 µL/min/mg
O=C1CCC(c2ccc(N3CCC(CN4CCC(CC(=O)N[C@H]5CC[C@H](Nc6ncnc7[nH]cc(C(=O)c8ccc(Oc9ccccc9)cc8)c67)C5)CC4)CC3)nc2)C(=O)N1 (some centres undefined)	20.3 µL/min/mg

// each compound listed below needs its microsomal CLint
1. O=C1CCC(c2ccc(N3CCC(CCN4CCC(CC(=O)N[C@H]5CC[C@H](Nc6ncnc7[nH]cc(C(=O)c8ccc(Oc9ccccc9)cc8)c67)C5)CC4)CC3)cc2)C(=O)N1 (some centres undefined)
2. O=C1CCC(c2ccc(N3CCC(CCN4CCC(CC(=O)N[C@H]5CC[C@H](Nc6ncnc7[nH]cc(C(=O)c8ccc(Oc9ccccc9)cc8)c67)C5)CC4)CC3)nc2)C(=O)N1 (some centres undefined)

1: < 9.6 µL/min/mg; 2: < 9.6 µL/min/mg
